target: JAK1 kinase activity on STAT3 in TF1 cells (Homo sapiens, UniProt P23458); assay: pSTAT3 cell assay (MSD; TF1 cells, 30 ng/mL IL-6 stimulation); details: 30 ng/mL IL-6, 15 minutes
Sequence (P23458 whole entry): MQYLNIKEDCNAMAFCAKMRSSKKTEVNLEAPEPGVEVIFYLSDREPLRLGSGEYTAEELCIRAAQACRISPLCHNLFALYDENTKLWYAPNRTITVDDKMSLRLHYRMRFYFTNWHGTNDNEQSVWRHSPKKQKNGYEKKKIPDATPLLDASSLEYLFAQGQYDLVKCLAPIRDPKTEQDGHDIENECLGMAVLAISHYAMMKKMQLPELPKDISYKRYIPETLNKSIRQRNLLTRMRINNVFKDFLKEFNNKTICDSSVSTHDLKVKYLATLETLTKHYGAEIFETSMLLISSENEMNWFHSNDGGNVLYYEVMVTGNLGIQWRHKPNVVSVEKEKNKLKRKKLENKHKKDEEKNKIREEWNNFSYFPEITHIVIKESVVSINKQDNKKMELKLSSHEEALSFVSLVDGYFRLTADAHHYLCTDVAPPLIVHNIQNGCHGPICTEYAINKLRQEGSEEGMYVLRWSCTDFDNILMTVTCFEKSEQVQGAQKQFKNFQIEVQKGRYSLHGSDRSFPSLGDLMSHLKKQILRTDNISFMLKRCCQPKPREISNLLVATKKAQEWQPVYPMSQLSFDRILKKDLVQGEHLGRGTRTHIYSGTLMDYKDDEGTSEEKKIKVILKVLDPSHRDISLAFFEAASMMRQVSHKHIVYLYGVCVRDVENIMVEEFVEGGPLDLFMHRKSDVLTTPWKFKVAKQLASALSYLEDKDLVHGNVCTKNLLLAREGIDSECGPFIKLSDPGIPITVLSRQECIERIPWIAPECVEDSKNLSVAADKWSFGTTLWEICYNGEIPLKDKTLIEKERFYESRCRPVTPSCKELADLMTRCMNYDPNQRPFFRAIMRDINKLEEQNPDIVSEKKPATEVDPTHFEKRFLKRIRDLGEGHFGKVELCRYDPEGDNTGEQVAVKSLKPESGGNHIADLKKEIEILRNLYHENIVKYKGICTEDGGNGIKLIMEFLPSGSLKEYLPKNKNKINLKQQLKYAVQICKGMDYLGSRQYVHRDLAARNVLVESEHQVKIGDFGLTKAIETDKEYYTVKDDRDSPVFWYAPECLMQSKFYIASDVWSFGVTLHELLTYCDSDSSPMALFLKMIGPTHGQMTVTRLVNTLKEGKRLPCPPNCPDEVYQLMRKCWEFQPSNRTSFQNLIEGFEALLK
Record form. Attribute: IC50. Fill in for each entry.

Here is how some molecules turned out for IC50.
[[record]]
molecule = "C[C@@H]1CN(c2ccnn3cc(-c4cnn(C5CCCC5)c4)cc23)C(=O)[C@]1(C#N)C1CC1 [Example 170]"
system_name = "JAK1 kinase activity on STAT3 in TF1 cells (Homo sapiens, UniProt P23458)"
endpoint = "IC50"
value_reported = "5000 to 10000 nM"

[[record]]
molecule = "C[C@@H]1CN(c2nc(-c3cnn(CC4COC4)c3)cn3ncc(F)c23)C(=O)[C@]1(C#N)C1CC1 [Example 304]"
system_name = "JAK1 kinase activity on STAT3 in TF1 cells (Homo sapiens, UniProt P23458)"
endpoint = "IC50"
value_reported = "100 to 1000 nM"

[[record]]
molecule = "C[C@@H]1CN(c2nc(-c3cnn(CC(F)F)c3)cc3ncsc23)C(=O)[C@]1(C#N)C1CC1 [Example 354]"
system_name = "JAK1 kinase activity on STAT3 in TF1 cells (Homo sapiens, UniProt P23458)"
endpoint = "IC50"
value_reported = "< 100 nM"


API: value(readout= IC50, system= JAK1 kinase activity on STAT3 in TF1 cells (Homo sapiens, UniProt P23458), query= C[C@@H]1CN(c2ccnn3cc(-c4cnn(C5CCCCC5)c4)cc23)C(=O)[C@]1(C#N)C1CC1 [Example 169] ) 1000 to 5000 nM

Values were extracted from patent US20260297085A1.
